B1: VH:VL chains; a variant is named by its letters at X, in order (parent)
chain 1: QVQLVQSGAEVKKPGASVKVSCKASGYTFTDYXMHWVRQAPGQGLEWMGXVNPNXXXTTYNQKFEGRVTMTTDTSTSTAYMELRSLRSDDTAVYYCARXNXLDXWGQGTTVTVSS
chain 2: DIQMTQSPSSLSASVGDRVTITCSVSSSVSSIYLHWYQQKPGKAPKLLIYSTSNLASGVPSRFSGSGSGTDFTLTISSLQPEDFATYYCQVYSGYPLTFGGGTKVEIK

- Variants of: B1
- assayExplanation: yeast display scFab, FACS + sequencing
testReadout: non-specific binding call

Use the examples below as a reference point.
INSERT INTO assay_data (variantkey, experimentalresult) VALUES
  ('DRGKNDGD', 'no binding'),
  ('VRAGSSWD', 'binds'),
  ('SAAGADWS', 'no binding'),
  ('YTGTSDLV', 'no binding'),
  ('SRATAYSD', 'binds');

I have this variant here, VTGESAAV , and I need its recorded non-specific binding call.
no binding

non-specific binding call lookup needed for YRRRGDVV , thanks.
binds

What measured non-specific binding call goes with YAGTGVVD ?
binds

What value of measured non-specific binding call is listed for VATGDDWV ?
no binding

Return reported non-specific binding call; argument: FRTGDSWD
no binding

Entry FEEEGSAA : reported non-specific binding call = ?
no binding
